All values here come from patent US20230348616A1.

targetOrTestSystem: T1, HLA-A2/NY-ESO peptide complex presented on cells (human)
T1 construct: whole, on cells; also called HLA/NY-ESO; T2 cells supplemented with the NY-ESO peptide
method: flow cytometry on peptide-pulsed T2 cells, scFv 100 nM;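 further: scFv binding read as gMFI and normalized to the level of HLA/peptide complex displayed on T2 cells, with homologous 9-mer peptides used to probe specificity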
experimentalReadout: standardized gMFI

>  <binder>
NYA-1143 (scFv) scFv: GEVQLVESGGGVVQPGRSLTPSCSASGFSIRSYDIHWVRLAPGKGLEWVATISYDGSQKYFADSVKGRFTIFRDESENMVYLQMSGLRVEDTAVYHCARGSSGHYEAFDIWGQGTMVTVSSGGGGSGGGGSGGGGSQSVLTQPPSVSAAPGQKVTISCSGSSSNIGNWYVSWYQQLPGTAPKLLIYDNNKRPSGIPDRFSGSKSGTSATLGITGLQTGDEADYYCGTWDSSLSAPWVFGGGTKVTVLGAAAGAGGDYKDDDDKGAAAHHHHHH

>  <experimentalReadout>
standardized gMFI

>  <assayResult>
13.4

$$$$
>  <binder>
NYA-1163 (scFv) scFv: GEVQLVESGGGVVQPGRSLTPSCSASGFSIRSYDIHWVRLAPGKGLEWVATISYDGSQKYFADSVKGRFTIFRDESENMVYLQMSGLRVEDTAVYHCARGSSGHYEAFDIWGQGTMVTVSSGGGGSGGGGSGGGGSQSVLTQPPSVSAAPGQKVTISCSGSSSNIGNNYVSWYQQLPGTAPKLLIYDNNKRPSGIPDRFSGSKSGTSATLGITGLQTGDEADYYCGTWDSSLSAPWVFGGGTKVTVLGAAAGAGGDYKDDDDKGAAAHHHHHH

>  <experimentalReadout>
standardized gMFI

>  <assayResult>
4.21

$$$$
>  <binder>
NYA-0001 (scFv, also called NYA-0001 tag adduct; NY-R119 expressed in a cultured mammalian cell) scFv: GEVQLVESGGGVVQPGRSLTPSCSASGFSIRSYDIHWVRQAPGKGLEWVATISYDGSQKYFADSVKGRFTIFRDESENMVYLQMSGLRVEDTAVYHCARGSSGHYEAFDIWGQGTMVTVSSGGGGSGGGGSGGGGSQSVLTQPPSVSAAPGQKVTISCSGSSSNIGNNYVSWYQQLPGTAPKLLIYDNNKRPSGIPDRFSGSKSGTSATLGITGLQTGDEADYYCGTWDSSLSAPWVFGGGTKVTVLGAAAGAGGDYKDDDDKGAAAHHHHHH

>  <experimentalReadout>
standardized gMFI

>  <assayResult>
5.12

$$$$
